IC50 values recorded for human indoleamine 2,3-dioxygenase 1 (hIDO1) (Homo sapiens, UniProt P14902)

Use the examples below as a reference point.
> print(dat)
                                   compound                           subject.of.test  assay.result
1  CC1=C(c2ccccc2)C(CC(O)C2CCN(C(=O)NC3CCCCC3)CC2)n2cncc21 (centres unmarked) [Example 179]  human indoleamine 2,3-dioxygenase 1 (hIDO1) (Homo sapiens, UniProt P14902)      < 500 nM
2  CC1=C(c2ccccc2)C(CC(O)C2CCN(C(=O)c3ccccn3)CC2)n2cncc21 (single isomer, unassigned) [Example 161]  human indoleamine 2,3-dioxygenase 1 (hIDO1) (Homo sapiens, UniProt P14902)      > 500 nM
3  CC1=C(c2ccccc2)C(CC(=O)c2ccc(-c3ccccc3F)cc2)n2cncc21 (centres unmarked) [Example 58]  human indoleamine 2,3-dioxygenase 1 (hIDO1) (Homo sapiens, UniProt P14902)      < 500 nM
4  CC1=C(c2ccccc2)C(CC(=O)c2cccc(F)c2)n2cncc21 (centres unmarked) [Example 20]  human indoleamine 2,3-dioxygenase 1 (hIDO1) (Homo sapiens, UniProt P14902)      > 500 nM

Entry under review: CC1=C(c2ccccc2)C(CC(O)C2CCC(c3ccccc3)CC2)n2cncc21 (centres unmarked) [Example 186] . Reported IC50?
< 500 nM

// same read-out, input: CC1=C(c2ccccc2)C(CC(=O)c2ccc(C(=O)Nc3ccc(F)cc3F)cc2)n2cncc21 (centres unmarked) [Example 81]
< 500 nM

// next record CC1=C(c2ccccc2)C(CC(F)C2CCCCC2)n2cncc21 (centres unmarked) [Example 168]
> 500 nM

// next record CC1=C(c2ccccc2)C(CC(=O)c2ccc(OCc3ccccc3)cc2)n2cncc21 (centres unmarked) [Example 75]
< 500 nM
